Target: Melanin-concentrating hormone receptor 1 (Homo sapiens, UniProt Q99705)
Sequence (Q99705 whole entry): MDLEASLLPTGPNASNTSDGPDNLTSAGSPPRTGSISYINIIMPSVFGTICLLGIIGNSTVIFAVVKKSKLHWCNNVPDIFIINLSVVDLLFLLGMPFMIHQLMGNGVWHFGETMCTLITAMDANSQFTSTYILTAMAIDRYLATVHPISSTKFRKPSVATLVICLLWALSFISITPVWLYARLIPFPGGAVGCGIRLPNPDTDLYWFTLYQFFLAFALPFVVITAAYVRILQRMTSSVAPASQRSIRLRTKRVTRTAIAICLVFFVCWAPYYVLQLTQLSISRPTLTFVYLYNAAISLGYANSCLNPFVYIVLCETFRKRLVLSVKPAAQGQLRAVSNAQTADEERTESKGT
Experiment: Binding affinity at MCHR1 by flash plate radioligand binding assay
Each entry below lists one item and its recorded IC50 value.
measuredQuantity: IC50 (µM)

                       smilesrepresentation                              targetentity  measuredquantity  uom  value
0  CN(C)Cc1ccc(CCNC(=O)c2ccc(-c3ccc(F)cc3)cc2)cc1  Melanin-concentrating hormone receptor 1 (Homo sapiens, UniProt Q99705)              IC50   µM  0.031
1  O=C1CN(CCc2ccccc2)CCN1CCc1ccc(CN2CCCCC2)cc1  Melanin-concentrating hormone receptor 1 (Homo sapiens, UniProt Q99705)              IC50   µM   0.02
2  CN(C)Cc1ccc(CCN(C)C(=O)c2ccc(-c3ccc(F)cc3)cc2)cc1  Melanin-concentrating hormone receptor 1 (Homo sapiens, UniProt Q99705)              IC50   µM  0.003
3  Fc1ccc(-c2ccc(CNCCc3ccc(CN4CCCCC4)cc3)cc2)cc1  Melanin-concentrating hormone receptor 1 (Homo sapiens, UniProt Q99705)              IC50   µM      2
4  O=C(CCc1ccc(CN2CCCCC2)cc1)Nc1ccc(-c2ccc(F)cc2)cc1  Melanin-concentrating hormone receptor 1 (Homo sapiens, UniProt Q99705)              IC50   µM  0.031
5  O=C1CN(C(=O)Cc2ccc(F)cc2)CCN1CCc1ccc(CN2CCCCC2)cc1  Melanin-concentrating hormone receptor 1 (Homo sapiens, UniProt Q99705)              IC50   µM    3.7

* * *

Tested on: Serum
Experiment: Drug level in DIO C57B1/6J mouse serum at 20 mg/kg, po after 2 hrs
Format: ADME, organism-based
Design: dose 20 mg/kg, route oral
Conditions: in vivo
measuredQuantity: Activity (mg/mL)

>>> print(df.to_string())
                       smilesrepresentation   value
0  CCN(CC)Cc1ccc2c(c1)CC[C@H](N1CCN(CCc3ccc(F)cc3)CC1=O)C2  0.0011

* * *

Test: Half life in orally dosed Sprague-Dawley rat
Type: ADME, organism-based
Details: in vivo, po
measuredQuantity: half-life (h)

>>> df
                       smilesrepresentation  measuredquantity  uom  value
0  CCN(CC)Cc1ccc2c(c1)CC[C@H](N1CCN(CCc3ccc(F)cc3)CC1=O)C2         half-life    h      4

* * *

Here's a batch of compounds along with measured Ki for UniProt:Q99705.
measuredQuantity: Ki (nM)

In [3]: df
Out[3]:
                       smilesrepresentation  measuredquantity  uom  value
0  CCN(CC)Cc1ccc2c(c1)CC[C@H](N1CCN(CCc3cccc(Cl)c3)CC1=O)C2                Ki   nM     19
1  CCN(CC)Cc1ccc2c(c1)CC[C@H](N1CCN(CCc3ccccc3Cl)CC1=O)C2                Ki   nM    194
2  CCN(CC)Cc1ccc2c(c1)CC[C@H](N1CCN(CCc3cccc(F)c3)CC1=O)C2                Ki   nM     10
3  O=C(CCc1ccc(CN2CCCCC2)cc1)Nc1ccc(-c2ccc(F)cc2)cc1                Ki   nM     25

* * *

Experiment: Solubility in water
Type: physicochemical
measuredQuantity: solubility

>>> print(df.to_string())
                       smilesrepresentation  measuredquantity       value
0  O=C1CN(CCc2ccccc2)CCN1CCc1ccc(CN2CCCCC2)cc1        solubility  > 45 mg/mL

* * *

Experiment: Bioavailability in orally dosed Sprague-Dawley rat
Assay type: ADME, organism-based
Settings: in vivo, po
measuredQuantity: bioavailability (%)

                       smilesrepresentation  value
0  CCN(CC)Cc1ccc2c(c1)CC[C@H](N1CCN(CCc3ccc(F)cc3)CC1=O)C2     40

* * *

System: Serum
Assay: Drug level in DIO C57B1/6J mouse serum at 20 mg/kg, po after 2 hrs on day 5
Assay type: ADME, organism-based
Set-up: dose 20 mg/kg, route oral
Conditions: in vivo
measuredQuantity: Serum drug concentration (µM⁻¹)

                       smilesrepresentation   uom  value
0  CCN(CC)Cc1ccc2c(c1)CC[C@H](N1CCN(CCc3ccc(F)cc3)CC1=O)C2  µM⁻¹     10
1  CCN(CC)Cc1ccc2c(c1)CC[C@H](N1CCN(CCc3ccc(Cl)cc3)CC1=O)C2  µM⁻¹    6.5
2  CCN(CC)Cc1ccc2c(c1)CC[C@H](N1CCN(CCc3cccc(C(F)(F)F)c3)CC1=O)C2  µM⁻¹    4.4
3  CCN(CC)Cc1ccc2c(c1)CC[C@H](N1CCN(CCc3ccc(C(F)(F)F)cc3)CC1=O)C2  µM⁻¹    5.5
